src = patent US20180355059A1

# OD450 nm per record follows
biological target: T1, recombinant human PCSK9 protein, His-tagged (Immunogen A, hPCSK9-His) (human, UniProt Q8NBP7 31-692, limits assumed, biotin-labelled in the ELISA and blocking assays (Biotin labeling kit)); test: ELISA, biotin-hPCSK9-His on streptavidin plate; antibody 0.00067 nM
T1 construct: also called human PCSK9-His; recombinant hPCSK9-His; not shown: His tag
readout name: OD450 nm (OD450 nm)

{"columns": ["binder", "numeric readout"],
 "data": [
  ["76A1B11, chimeric anti-PCSK9 mAb purified from hybridoma (antibody, V domains shown, From Harbour H2L2 mice: human variable regions, rat constant regions) VH: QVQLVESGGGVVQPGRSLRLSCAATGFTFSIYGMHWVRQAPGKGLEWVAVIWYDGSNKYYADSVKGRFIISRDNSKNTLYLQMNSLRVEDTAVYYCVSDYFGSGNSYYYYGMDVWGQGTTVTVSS VL: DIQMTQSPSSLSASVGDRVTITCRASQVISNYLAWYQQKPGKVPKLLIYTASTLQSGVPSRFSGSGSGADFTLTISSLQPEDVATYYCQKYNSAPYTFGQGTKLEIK", 0.21],
  ["139G1C5, chimeric anti-PCSK9 mAb purified from hybridoma (antibody, V domains shown, From Harbour H2L2 mice: human variable regions, rat constant regions) VH: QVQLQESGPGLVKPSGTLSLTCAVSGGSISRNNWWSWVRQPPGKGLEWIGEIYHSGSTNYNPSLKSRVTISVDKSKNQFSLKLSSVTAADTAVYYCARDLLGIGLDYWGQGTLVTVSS VL: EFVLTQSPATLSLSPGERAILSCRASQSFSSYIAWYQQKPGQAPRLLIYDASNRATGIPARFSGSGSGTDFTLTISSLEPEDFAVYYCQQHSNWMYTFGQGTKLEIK", 0.21],
  ["152G2F7, chimeric anti-PCSK9 mAb purified from hybridoma (antibody, V domains shown, From Harbour H2L2 mice: human variable regions, rat constant regions) VH: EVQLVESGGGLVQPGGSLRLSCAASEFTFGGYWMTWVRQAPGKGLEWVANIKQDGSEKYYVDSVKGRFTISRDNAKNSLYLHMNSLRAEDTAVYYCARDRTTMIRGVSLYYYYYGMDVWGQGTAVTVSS VL: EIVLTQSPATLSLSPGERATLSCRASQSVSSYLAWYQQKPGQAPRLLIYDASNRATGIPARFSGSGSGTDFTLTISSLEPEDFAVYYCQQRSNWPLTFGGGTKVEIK", 0.21],
  ["74C10A8, chimeric anti-PCSK9 mAb purified from hybridoma (antibody, V domains shown, From Harbour H2L2 mice: human variable regions, rat constant regions) VH: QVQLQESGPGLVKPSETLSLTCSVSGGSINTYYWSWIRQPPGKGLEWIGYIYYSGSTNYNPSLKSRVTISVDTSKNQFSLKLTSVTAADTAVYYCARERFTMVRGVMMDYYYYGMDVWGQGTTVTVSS VL: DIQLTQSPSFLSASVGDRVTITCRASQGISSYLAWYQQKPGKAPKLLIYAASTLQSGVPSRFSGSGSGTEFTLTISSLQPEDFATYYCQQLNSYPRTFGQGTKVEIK", 0.17]
]}
